- Target of assay: T1, PUF4 RNA-binding domain (Saccharomyces cerevisiae, UniProt P25339 537-888)
- T1 sequence: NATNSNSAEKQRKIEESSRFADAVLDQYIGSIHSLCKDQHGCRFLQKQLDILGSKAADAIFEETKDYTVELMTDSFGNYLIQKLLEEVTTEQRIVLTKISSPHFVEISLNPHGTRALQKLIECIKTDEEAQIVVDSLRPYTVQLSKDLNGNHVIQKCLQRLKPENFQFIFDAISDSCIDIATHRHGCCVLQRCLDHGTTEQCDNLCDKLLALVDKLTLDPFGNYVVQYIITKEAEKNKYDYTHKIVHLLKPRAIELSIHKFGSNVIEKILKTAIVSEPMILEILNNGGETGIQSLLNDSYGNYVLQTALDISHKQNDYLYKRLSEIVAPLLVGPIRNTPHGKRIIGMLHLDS
- Assay explanation: Mg; RNA-MaP; 20 mM Na-HEPES pH 7.4, 30 mM KOAc, 0.75 mM MgCl2, 0.1% Tween-20, 5% glycerol, 0.1 mg/mL BSA, 2 mM DTT; 25 C; 0.0125-409.6 nM protein
- Condition notes: tags: N-His6-TEV cleaved; C-SNAP kept, Cy3B-labelled; label: tethered on chip by stalled RNA polymerase
Exercise: for every item that follows, state its recorded Kd.
Lab book: enter the figure in nM, no units written.

Query string: Query: Kd; subject: UCUCUUUGUAACUUUCUCUU (ssRNA) [Ic_S1_P3E.1_K3.1_C3.1_H3.1_A3.1_[T5A]_[A6C]_F3.1_[A8T]_T3.1]
Result string: 57.1

Query string: Subsequent entry: Id_ii_S4_P3E.2_K3.1_C3.2_[C-2A]_[T-1A]_H3.1_A3.1_F3.1_T3.2_[T9A]_[A10G] (ssRNA) RNA: UUUGACAACUGAUCGUUCUUUCUAAUGUAUAUAAGUUCUUUCUCGAUCAGUUGUCUUU
Result string: 13.3

Query string: Subsequent entry: Id_ii_S2_P4E.3_K4.2_C4.2_[C-2G]_[T-1G]_H4.2_A4.1_F4.1_T4.2_[G10A] (ssRNA) RNA: UUUGAUUAAUAUGAUAUCGUUCUUUCUGGUAUAUAUUAAUUUCUUUCUCGAUAUCAUAUUAAUCUUU
Result string: 57

Query string: Subsequent entry: Ib_S2_P3E.1_K3.1_C3.1_H3.1_[T1G]_A3.1_F3.1_[A8G]_T3.1 (ssRNA) RNA: UUUGAUUAAUAUGAUAUCGUUCUUUCUGGUAUAUGUUCUUUCUCGAUAUCAUAUUAAUCUUU
Result string: 1140

Query string: Subsequent entry: ACAAACUGUAUUUCUCUAUUAACAAAC (ssRNA) [Ie_S3_P5E.1_K5.1_C5.1_H5.1_A5.1_[+6TCTCT]_F5.1_T5.1]
Result string: 38.4
